# EC50 per record follows
Molecular target: Heat shock factor protein 1 (Mus musculus, UniProt P38532)
Sequence (P38532 whole entry): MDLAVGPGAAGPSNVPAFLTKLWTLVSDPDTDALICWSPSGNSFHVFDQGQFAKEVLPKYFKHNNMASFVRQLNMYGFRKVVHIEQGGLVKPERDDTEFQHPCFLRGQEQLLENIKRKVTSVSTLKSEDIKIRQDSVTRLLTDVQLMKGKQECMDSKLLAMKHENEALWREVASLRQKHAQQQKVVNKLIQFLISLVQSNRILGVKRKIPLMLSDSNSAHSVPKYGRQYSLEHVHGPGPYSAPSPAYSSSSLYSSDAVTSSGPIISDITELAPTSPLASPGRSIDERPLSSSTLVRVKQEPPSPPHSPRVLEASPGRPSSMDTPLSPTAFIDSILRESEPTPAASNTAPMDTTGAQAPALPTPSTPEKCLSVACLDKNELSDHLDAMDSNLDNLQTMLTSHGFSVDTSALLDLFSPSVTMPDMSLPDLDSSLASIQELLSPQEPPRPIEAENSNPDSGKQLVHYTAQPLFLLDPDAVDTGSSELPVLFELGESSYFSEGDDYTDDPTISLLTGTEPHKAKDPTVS
Experiment: decrease of HSF1-responsive luciferase luminescence – cell-based, NIH3T3, dose retest, confirmation (AID 2382);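 further: NIH3T3 fibroblasts with HSF1-driven luciferase reporter stressed by proteasome inhibitor MG132; luminescence from HSF1-driven luciferase expression after 8 hours of MG132 stress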
Type: functional
measurement-label: EC50

compound	value-measured
Cc1cc(C)n(-c2nc3ccccc3s2)n1	> 195 µM (not active)
COc1ccc(N(CC(=O)Nc2cccc(C)c2)S(=O)(=O)c2c(C)noc2C)cc1	> 195 µM (not active)
Cc1ccc2oc(C(=O)N3CCC(C(N)=O)(N4CCCCC4)CC3)c(C)c2c1	> 195 µM (not active)
O=C(Nc1cccc(-c2ccc(F)cc2)c1)C1CCCN(C(=O)c2cscn2)C1 (stereo not given)	> 195 µM (not active)
C[C@]12CC[C@@H]3c4ccc(O[C@@H]5O[C@H](C(=O)O)[C@@H](O)[C@H](O)[C@H]5O)cc4CC[C@H]3[C@@H]1C[C@@H](O)[C@@H]2O	> 195 µM (not active)
COc1ccc(N2CCN(C(=O)COC(=O)CCOc3ccccc3C)CC2)cc1	> 195 µM (not active)
CCOc1ccc(NC(=S)N(CCc2ccncc2)C(C)C)cc1	> 195 µM (not active)
S=C1NCCN1	> 195 µM (not active)
CC1CCN(CC(=O)Nc2ccc(S(=O)(=O)NC3CC3)cc2)CC1	> 195 µM (not active)
O=C(Nc1ccc2c(c1)ncn2C1CCCCC1)c1ccco1	> 195 µM (not active)
